Test system: 621-103 (TSC2-rescued)
MEASUREMENT DESCRIPTION: relative viability vs DMSO; higher = less cytotoxic;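 also: immortalized renal angiomyolipoma cells stably carrying empty vector or TSC2, dosed in 384-well plates in DMEM, viability normalized to vehicle-treated wells within each plate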
TEST PARAMETERS: 1 µM; serum: 10% FBS; 72 h
MEASUREMENT NAME: relative viability
Answer by giving the amount and then stating its unit.

| MOLECULE | relative viability |
| --- | --- |
| CN1CCN(C2=Nc3cc(Cl)ccc3Nc3ccccc32)CC1 | 109% |
| CN(C)c1ccc(-c2nc3ncc(Cl)c(N4CCN(CC(=O)Nc5nccs5)CC4)c3[nH]2)cc1 | 97.2% |
| COC[C@@H](c1ccc(C(F)(F)F)cc1)N1CCN(C2(C)CCN(C(=O)c3c(C)ncnc3C)CC2)C[C@@H]1C [Vicriviroc Malate] | 96.3% |
| Nc1nc(N)c2nc(-c3cccc(O)c3)c(-c3cccc(O)c3)nc2n1 | 99.5% |
| COc1ccccc1N1CCN(CC(O)COc2cccc3ccccc23)CC1 (stereo unspecified) | 102% |

Your task in this section: give relative viability for each listed record.
1. O=c1cc(-c2cccc3c2Sc2ccccc2S3)oc(N2CCOCC2)c1
2. Cc1ccc(NC(=O)c2ccc(CN3CCN(C)CC3)cc2)cc1Nc1nccc(-c2cccnc2)n1 [Imatinib (STI571)]
3. Oc1ccc(-c2nc(-c3ccc(F)cc3)c(-c3ccncc3)[nH]2)cc1
4. CC(C)(C)c1cnc(CSc2cnc(NC(=O)C3CCNCC3)s2)o1
5. O=c1oc2cc(O)ccc2s1

Outgoing:
1: 77.1%; 2: 94.4%; 3: 98.4%; 4: 21.3%; 5: 71.5%

# relative viability of "COc1cc(OC)c(NC(=O)Nc2cc(C)on2)cc1Cl" = 109%

====

Tested on: 621-103 (TSC2-rescued)
MEASUREMENT DESCRIPTION: relative viability vs DMSO; higher = less cytotoxic
TEST PARAMETERS: 0.0001 µM; serum: 10% FBS; 72 h
Where a name gives a salt, the structure may show the parent alone.
MEASUREMENT NAME: relative viability (%)
One number for each entry, in %.

Recorded relative viability, per entry:
| MOLECULE | relative viability / % |
| --- | --- |
| Cc1cc(Nc2cc(N3CCN(C)CC3)nc(/C=C/c3ccccc3)n2)n[nH]1 | 100 |
| COc1cccc2cc(-c3nc([C@H]4CC[C@H](C(=O)O)CC4)n4ncnc(N)c34)[nH]c12 | 105 |

Look at each molecule and report its relative viability.
1. CCCCC(=O)N(Cc1ccc(-c2ccccc2-c2nnn[nH]2)cc1)[C@H](C(=O)O)C(C)C
2. CN(C)C(=O)C(CCN1CCC(O)(c2ccc(Cl)cc2)CC1)(c1ccccc1)c1ccccc1 [Loperamide HCl]

Outgoing:
101
91.7

So, "CC(C)C[C@H](NC(=O)[C@H](Cc1ccccc1)NC(=O)c1cnccn1)B(O)O" ? Its relative viability was 97.4

====

System: 621-103 (TSC2-rescued)
MEASUREMENT DESCRIPTION: relative viability vs DMSO; higher = less cytotoxic
TEST PARAMETERS: 1 µM; serum: 10% FBS; 72 h
Structures can show the parent of a compound that is named as a salt.
Would you kindly list relative viability for each of these molecules?
Give bare numbers, in %.

// below: answered molecules
| MOLECULE | relative viability / % |
| --- | --- |
| CNC(=C[N+](=O)[O-])NCCSCc1csc(CN(C)C)n1 [Nizatidine] | 102 |
| C[C@]12CCC(=O)C(O)=C1CC[C@@H]1[C@@H]2CC[C@]2(C)C(=O)CC[C@@H]12 [Formestane] | 101 |
| CCC1=C[C@@H]2CN(C1)Cc1c([nH]c3ccccc13)[C@@](C(=O)OC)(c1cc3c(cc1OC)N(C)[C@H]1[C@@](O)(C(=O)OC)[C@H](OC(C)=O)[C@]4(CC)C=CCN5CC[C@@]31[C@H]54)C2 [Vinorelbine(Navelbine)] | 29.9 |
| C[C@@](Cc1ccc(O)c(O)c1)(NN)C(=O)O [Carbidopa] | 104 |
| CN1CC[C@H](c2c(O)cc(O)c3c(=O)cc(-c4ccccc4Cl)oc23)[C@H](O)C1 [Flavopiridol HCl] | 13 |

Would you be so kind as to report relative viability for each listed record?
1. O=C1NC(=O)C(c2ccccc2)(c2ccccc2)N1 [Phenytoin]
2. Cc1[nH]c(/C=C2\C(=O)Nc3ccccc32)c(C)c1CCC(=O)O [TSU-68]
3. Cc1nc(-c2ccc(OCC(C)C)c(C#N)c2)sc1C(=O)O [Febuxostat]
4. CC(=O)O[C@H]1C[C@@H]2CC[C@@H]3[C@H](CC[C@@]4(C)[C@H]3C[C@H]([N+]3(C)CCCCC3)[C@@H]4OC(C)=O)[C@@]2(C)C[C@@H]1[N+]1(C)CCCCC1 [Pancuronium bromide]
5. N#Cc1c(O)c2c(-c3ccc(-c4ccccc4O)cc3)csc2[nH]c1=O
6. COC(=O)C1=C(C)NC(C)=C(C(=O)OCCN2CCN(C(c3ccccc3)c3ccccc3)CC2)C1c1cccc([N+](=O)[O-])c1 (configuration not stated) [Manidipine HCl (CV-4093)]
7. Cn1c(N2CCCCS2(=O)=O)nc(C(=O)NCc2ccc(F)cc2)c(O)c1=O

Outgoing:
[101, 102, 98.3, 93.8, 100, 89.9, 101]

====

What relative viability was measured for each of the following?
System: 621-103 (TSC2-rescued)
MEASUREMENT DESCRIPTION: relative viability vs DMSO; higher = less cytotoxic
TEST PARAMETERS: 0.0001 µM; serum: 10% FBS; 72 h
Counter-ions that a name gives are not always drawn.
Numbers only, in %.

Study these solved cases before continuing.
| COMPOUND | UNITS TEXT | relative viability |
| --- | --- | --- |
| COc1ccc(-c2ccc3c(N4CCOC[C@@H]4C)nc(N4CCOC[C@@H]4C)nc3n2)cc1CO [AZD8055] | % | 90.4 |
| CN(C)CCOC(c1ccccc1)c1ccccc1 [Diphenhydramine HCl] | % | 89.4 |
| CS(=O)(=O)c1ccc(C(=O)Nc2ccc(Cl)c(-c3ccccn3)c2)c(Cl)c1 [GDC-0449 (Vismodegib)] | % | 100 |
| CC(C)c1nc(CN(C)C(=O)N[C@H](C(=O)N[C@@H](Cc2ccccc2)C[C@H](O)[C@H](Cc2ccccc2)NC(=O)OCc2cncs2)C(C)C)cs1 [Ritonavir] | % | 99.5 |
| NC(=O)c1ncn([C@@H]2O[C@H](CO)[C@@H](O)[C@H]2O)c1O [Mizoribine] | % | 104 |
| CC1=NN(c2ccc(C)c(C)c2)C(=O)/C1=N\Nc1cccc(-c2cccc(C(=O)O)c2)c1O | % | 99.1 |
| NC(=O)c1ccc(I)c([N+](=O)[O-])c1 [BSI-201] | % | 108 |
| FC(F)(F)c1ccc(/C=C/c2nc(COc3ccc(CCCCn4ccnn4)cc3)co2)cc1 [Mubritinib (TAK 165)] | % | 112 |

Field: relative viability. Fill in for each record below.
1. CC(C)(Oc1ccc(C2CC2(Cl)Cl)cc1)C(=O)O (configuration not stated) [Ciprofibrate]
2. COc1cc([C@@H]2c3cc4c(cc3[C@@H](O[C@@H]3O[C@@H]5CO[C@@H](C)O[C@H]5[C@H](O)[C@H]3O)[C@H]3COC(=O)[C@H]23)OCO4)cc(OC)c1O [Etoposide (Etopophos)]

Outgoing:
1. 107
2. 99.8

Dear colleague, could you send me relative viability for each of the items below? Thanks.
1. Cn1cc(C2=C(c3cn(C4CCN(Cc5ccccn5)CC4)c4ccccc34)C(=O)NC2=O)c2ccccc21 [Enzastaurin]
2. Cc1[nH]c(/C=C2\C(=O)Nc3ccc(S(=O)(=O)N(C)c4cccc(Cl)c4)cc32)c(C)c1C(=O)N1CCN(C)CC1

Outgoing:
1. 104
2. 97.3

====

Give measured relative viability for each item. Keep answers brief.
System: 621-102 (TSC2-deficient)
MEASUREMENT DESCRIPTION: relative viability vs DMSO; higher = less cytotoxic
TEST PARAMETERS: 10 µM; serum: 10% FBS; 72 h
Where a name gives a salt, the structure may show the parent alone.
Give bare numbers, in %.

Below are worked cases with known answers.
| COMPOUND | relative viability / % |
| --- | --- |
| CC(C)C[C@H](NC(=O)[C@H](Cc1ccccc1)NC(=O)c1cnccn1)B(O)O | 1.87 |
| CCC(C)n1ncn(-c2ccc(N3CCN(c4ccc(OCC5COC(Cn6cncn6)(c6ccc(Cl)cc6Cl)O5)cc4)CC3)cc2)c1=O (stereo not drawn) [Itraconazole (Sporanox)] | 7.53 |

Continue with the compound presented below.
Result for c1ccc2c(CC3=NCCN3)cccc2c1 [Naphazoline HCl] , tested on 621-102 (TSC2-deficient), relative viability: 112

====

System: 621-103 (TSC2-rescued)
MEASUREMENT DESCRIPTION: relative viability vs DMSO; higher = less cytotoxic
TEST PARAMETERS: 10 µM; serum: 10% FBS; 72 h
Structures can show the parent of a compound that is named as a salt.
For each of the compounds below, state its relative viability.
Give bare numbers, in %.

Recorded results for 4 compounds are shown here.
| COMPOUND | TARGET OR TEST SYSTEM | NUMBER |
| --- | --- | --- |
| C[N+]1(C)[C@@H]2C[C@@H](OC(=O)C(O)(c3cccs3)c3cccs3)C[C@H]1[C@@H]1O[C@@H]12 [Tiotropium Bromide hydrate] | 621-103 (TSC2-rescued) | 103 |
| COc1ccc([C@H]2CNC(=O)C2)cc1OC1CCCC1 [S-(+)-Rolipram] | 621-103 (TSC2-rescued) | 106 |
| Cc1ccc(NC(=O)c2cccc(N(C)C)c2)cc1NC(=O)c1ccc(O)cc1 | 621-103 (TSC2-rescued) | 98.9 |
| CCCN[C@H]1CCc2nc(N)sc2C1 [Pramipexole dihydrochloride monohydrate] | 621-103 (TSC2-rescued) | 100 |

The following compounds each have a reported value; give each one's relative viability.
1. Cc1[nH]nc2ccc(-c3cncc(OC[C@@H](N)Cc4ccccc4)c3)cc12
2. CCCCN1CCCCC1C(=O)Nc1c(C)cccc1C (stereo not drawn) [Bupivacaine HCl (marcain)]
3. CC(C[N+](C)(C)C)OC(N)=O (stereo not drawn) [Bethanechol chloride]
4. CN(C)CC[C@H](CSc1ccccc1)Nc1ccc(S(=O)(=O)NC(=O)c2ccc(N3CCN(Cc4ccccc4-c4ccc(Cl)cc4)CC3)cc2)cc1[N+](=O)[O-] [ABT-737]

Outgoing:
6.08
98.4
102
43.5
